System: HIV-1 strain HTLVIIIB
MEASUREMENT_NOTES: Inhibition of HIV-1 HTLVIIIB replication in PBMC (p24 antigen EIA)
Format: cell-based
STUDY_CONDITIONS: HIV-1 strain HTLVIIIB in human PBMC, p24 EIA on 7th day after infection
MEASURED_METRIC: IC50 [HTL VIIIB]

>>> df
                                   compound            value_reported
0             S=C(NCCN1CCCCC1)Nc1ccc(Br)cn1  nanomolar concentrations
1  FC(CNC(=S)Nc1ccc(Cl)cn1)c1ccccc1 (stereo not shown)              subnanomolar
2             S=C(NCCN1CCCCC1)Nc1ccc(Cl)cn1  nanomolar concentrations
3  FC(CNC(=S)Nc1ccc(Br)cn1)c1ccccc1 (stereo not shown)              subnanomolar

* * *

Tested on: human peripheral blood mononuclear cells (PBMC)
MEASUREMENT_NOTES: Microculture Tetrazolium Assay (MTA, XTT) for cell viability of non-infected PBMC
Format: cell-based
STUDY_CONDITIONS: 7 days, read-out: CC (cytotoxic concentration, CC50)
Field: label. Allowed values: 1 (CC50 < 60 µM) or 0 (CC50 >= 60 µM).

Past entries and their recorded results:
                                   compound                            assayed_system  label_value
0  S=C(NCCOc1ccccc1)Nc1ccc(Cl)cn1 [Compound 9]  human peripheral blood mononuclear cells (PBMC)            0
1  FC(CNC(=S)Nc1ccc(Cl)cn1)c1ccccc1 (stereo not shown) [Compound 11]  human peripheral blood mononuclear cells (PBMC)            1
2  S=C(NCCc1ccccn1)Nc1ccc(Br)cn1 [Trovirdine, reference compound]  human peripheral blood mononuclear cells (PBMC)            0
3   S=C(NCCOc1ccccc1)Nc1ccccn1 [Compound 8]  human peripheral blood mononuclear cells (PBMC)            1
4  S=C(NCCOc1ccccc1)Nc1ccc(Br)cn1 [Compound 10]  human peripheral blood mononuclear cells (PBMC)            0
5  FC(CNC(=S)Nc1ccc(Br)cn1)c1ccccc1 (stereo not shown) [Compound 12]  human peripheral blood mononuclear cells (PBMC)            1

As a next step, examine the compound that follows.
Q) For CC1CCCCN1CCNC(=S)Nc1ccc(Br)cn1 (stereo not shown) [Compound 4] , is the recorded CC50 below the cut-off of 60 µM?
A) 1
